# Tested on: OVCAR-3 ovarian
# Experiment Summary: NCI-60 one-dose screen, 48 h
# Test Conditions: 10 µM unless noted
The panel holds about 83,000 compounds, 20% with a hit somewhere; the sample as a whole holds those more often. Activity calls are given as the source filed them. The calls were made as follows: active = growth percent below 10; inactive = the rest.
// allowed return values: yes for active, no for inactive

Kindly provide the recorded test outcome for the following compound: CS(=O)(=O)c1ccc(-c2cnn3ccc(-c4cccc(S(=O)(=O)C5CC5)c4)nc23)cc1 no

Kindly provide the recorded test outcome for the following compound: COc1ccc(-c2ccc(=O)oc2-c2cc(OC)c(OC)c(OC)c2)cc1O yes

Kindly provide the recorded test outcome for the following compound: O=C(CN1C(=O)NC2NC(=O)NC21)N/N=C/c1ccccc1[N+](=O)[O-] (stereo not given) no

Kindly provide the recorded test outcome for the following compound: Cc1cccc(/C=C2\CN(C(=O)OC(C)(C)C)C/C(=C\c3cccc(C)c3)C2=O)c1 no

Kindly provide the recorded test outcome for the following compound: CCCCNCCCCCNc1cc(OC)cc2cccnc12 no

Kindly provide the recorded test outcome for the following compound: O=S(=O)(c1ccccc1)n1cc2c(c1)-c1nc(Nc3ncccn3)sc1CC2 no

Kindly provide the recorded test outcome for the following compound: C=CCN=c1sc2c(n1NC(=O)c1cc3ccc1CCc1ccc(cc1)CC3)C(=O)c1ccccc1C2=O yes

Kindly provide the recorded test outcome for the following compound: O=C(CN1CCOCC1)Nc1nc(-c2cc3ccccc3oc2=O)cs1 no

Kindly provide the recorded test outcome for the following compound: Nc1c(C(=O)Nc2ccncc2)sc2nc3c(cc12)C(O)CCC3 (stereo not given) no

Kindly provide the recorded test outcome for the following compound: CCOc1ccccc1Cn1ccnc1CCc1c(Cl)c(O)cc(O)c1C(=O)OC no
